experiment-description: Oral bioavailability in Sprague-Dawley rat at 3 mg/kg measured upto 24 hrs
Type: ADME, organism-based
condition-parameters: in vivo, po, 3 mg/kg, 24 h
Classification field: label 1 = F at or over 70%; label 0 = F under 70%.

| given-smiles | assigned-category |
| --- | --- |
| CNC(=O)c1ncn2cc(-c3c(F)ccc(NS(=O)(=O)c4cc(Cl)cnc4OC)c3F)ccc12 | label 0 |
| COc1ncc(Cl)cc1S(=O)(=O)Nc1ccc(F)c(-c2ccc3c(-c4ncc[nH]4)n[nH]c3c2F)c1F | label 0 |
| CNC(=O)c1ncn2cc(-c3c(F)ccc(NS(=O)(=O)c4cc(Cl)cnc4OC)c3F)ncc12 | label 0 |
| CNC(=O)c1ncn2c1CC[C@H](c1c(F)ccc(NS(=O)(=O)c3cc(F)cnc3OC)c1F)C2 | label 1 |
| CNC(=O)c1n[nH]c2c(F)c(-c3c(F)ccc(NS(=O)(=O)c4cc(Cl)cnc4OC)c3F)ccc12 | label 0 |

----------
experiment-description: Unbound AUC in Sprague-Dawley rat at 3 mg/kg, po measured upto 24 hrs
Assay type: ADME, organism-based
condition-parameters: in vivo
Returns: string. Value is t if measured fAUC is below 90 nM·h, and f if it is greater than or equal to it.

| given-smiles | assigned-category |
| --- | --- |
| CNC(=O)c1ncn2cc(-c3c(F)ccc(NS(=O)(=O)c4cc(Cl)cnc4OC)c3F)ncc12 | t |
| COc1ncc(Cl)cc1S(=O)(=O)Nc1ccc(F)c(-c2ccc3c(-c4ncc[nH]4)n[nH]c3c2F)c1F | t |
| CNC(=O)c1ncn2cc(-c3c(F)ccc(NS(=O)(=O)c4cc(Cl)cnc4OC)c3F)ccc12 | t |
| CNC(=O)c1ncn2cc(-c3c(F)ccc([N-]S(=O)(=O)c4cc(Cl)cnc4OC)c3F)ncc12.[K+] | f |
| CNC(=O)c1ncn2c1CC[C@H](c1c(F)ccc(NS(=O)(=O)c3cc(F)cnc3OC)c1F)C2 | f |
| CNC(=O)c1n[nH]c2c(F)c(-c3c(F)ccc(NS(=O)(=O)c4cc(Cl)cnc4OC)c3F)ccc12 | f |
| COc1ncc(Cl)cc1S(=O)(=O)Nc1ccc(F)c(-c2ccc3c(-c4ncc[nH]4)ncn3c2)c1F | f |

----------
assayed-target: UniProt:Q9NZJ5
experiment-description: Activation of PERK in HEK293 cells transfected with ATF4 response element preincubated for 30 mins followed by tunicamycin addition and measured after 6 hrs by One-Glo reagent based plate reader assay
pEC50: −log10 of the molar value.

| given-smiles | result-modifier | pEC50 |
| --- | --- | --- |
| CNC(=O)c1ncn2cc(-c3c(F)ccc(NS(=O)(=O)c4cc(F)cnc4OC)c3F)ccc12 | < | 5.00 |
| CNC(=O)c1ncn2cc(-c3c(F)ccc(NS(=O)(=O)c4cc(Cl)cnc4OC)c3F)ccc12 | = | 5.31 |
| CNC(=O)c1ncn2cc(-c3c(F)ccc(NS(=O)(=O)c4cc(F)cnc4C)c3F)ccc12 | = | 5.24 |
| CNC(=O)c1ncn2c(F)c(-c3c(F)ccc(NS(=O)(=O)c4cc(Cl)cnc4OC)c3F)ccc12 | = | 5.82 |
| CNC(=O)c1ncn2cc(-c3c(F)ccc(NS(=O)(=O)c4cc(C#N)cnc4OC)c3F)ccc12 | < | 5.00 |
| CNC(=O)c1ncn2cc(-c3c(F)ccc(NS(=O)(=O)c4cc(Cl)cnc4OC)c3F)ncc12 | = | 5.16 |
| CNC(=O)c1ncn2c1CC[C@H](c1c(F)ccc(NS(=O)(=O)c3cc(F)cnc3OC)c1F)C2 | = | 5.82 |
| CNC(=O)c1n[nH]c2c(F)c(-c3c(F)ccc(NS(=O)(=O)c4cc(Cl)cnc4OC)c3F)ccc12 | = | 5.21 |
| COc1ncc(Cl)cc1S(=O)(=O)Nc1ccc(F)c(-c2ccc3c(-c4ncc[nH]4)ncn3c2)c1F | = | 5.77 |
| CNC(=O)c1ncn2c1CC[C@H](c1c(F)ccc(NS(=O)(=O)c3cc(Cl)cnc3OC)c1F)C2 | = | 6.34 |
| CNC(=O)c1ncn2nc(-c3c(F)ccc(NS(=O)(=O)c4cc(Cl)cnc4OC)c3F)ccc12 | = | 6.06 |
| COc1ncc(Cl)cc1S(=O)(=O)Nc1ccc(F)c(-c2ccc3c(-c4ncc[nH]4)n[nH]c3c2F)c1F | = | 5.85 |

----------
assayed-target: Eukaryotic translation initiation factor 2-alpha kinase 3 (Homo sapiens) (UniProt Q9NZJ5)
Sequence (whole entry): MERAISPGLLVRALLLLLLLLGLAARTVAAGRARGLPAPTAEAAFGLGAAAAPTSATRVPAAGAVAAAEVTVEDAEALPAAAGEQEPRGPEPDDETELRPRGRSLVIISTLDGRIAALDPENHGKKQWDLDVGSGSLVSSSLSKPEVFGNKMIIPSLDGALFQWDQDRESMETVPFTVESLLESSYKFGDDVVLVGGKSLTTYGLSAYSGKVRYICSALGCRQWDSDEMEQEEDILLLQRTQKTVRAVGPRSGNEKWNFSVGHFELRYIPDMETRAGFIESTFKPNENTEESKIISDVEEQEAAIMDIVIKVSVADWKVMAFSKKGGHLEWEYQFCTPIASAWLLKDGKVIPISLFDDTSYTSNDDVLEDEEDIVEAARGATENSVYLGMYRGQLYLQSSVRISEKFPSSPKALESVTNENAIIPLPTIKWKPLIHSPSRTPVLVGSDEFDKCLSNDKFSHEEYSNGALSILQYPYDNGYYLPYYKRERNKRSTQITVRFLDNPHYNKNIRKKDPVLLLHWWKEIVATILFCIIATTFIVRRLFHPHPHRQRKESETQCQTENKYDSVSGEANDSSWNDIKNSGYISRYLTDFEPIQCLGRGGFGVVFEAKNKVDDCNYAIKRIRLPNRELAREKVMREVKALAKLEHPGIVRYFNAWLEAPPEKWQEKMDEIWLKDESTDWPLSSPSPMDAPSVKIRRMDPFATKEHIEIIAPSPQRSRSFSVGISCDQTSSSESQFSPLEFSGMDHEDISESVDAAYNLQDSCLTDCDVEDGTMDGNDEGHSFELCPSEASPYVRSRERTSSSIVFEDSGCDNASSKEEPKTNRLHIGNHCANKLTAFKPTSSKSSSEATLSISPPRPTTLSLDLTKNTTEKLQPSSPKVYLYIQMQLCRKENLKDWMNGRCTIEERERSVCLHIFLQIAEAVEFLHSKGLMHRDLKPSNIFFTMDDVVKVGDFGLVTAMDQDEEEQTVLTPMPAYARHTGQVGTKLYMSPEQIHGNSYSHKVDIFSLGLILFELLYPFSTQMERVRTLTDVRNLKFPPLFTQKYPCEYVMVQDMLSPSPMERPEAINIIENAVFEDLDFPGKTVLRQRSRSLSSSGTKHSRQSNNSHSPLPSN
experiment-description: Activation of PERK in HEK293 cells transfected with ATF4 response element assessed as unbound effective concentration preincubated for 30 mins followed by tunicamycin addition and measured after 6 hrs by One-Glo reagent based plate reader assay
Assay type: cell-based
condition-parameters: filed as activator, time 6.5 hrs
// reported fEC50 per item
experimental-endpoint: fEC50 (nM)

| given-smiles | unit-info | observed-result |
| --- | --- | --- |
| CNC(=O)c1ncn2c1CC[C@H](c1c(F)ccc(NS(=O)(=O)c3cc(Cl)cnc3OC)c1F)C2 | nM | 240 |
| CNC(=O)c1n[nH]c2c(F)c(-c3c(F)ccc(NS(=O)(=O)c4cc(Cl)cnc4OC)c3F)ccc12 | nM | 180 |
| COc1ncc(Cl)cc1S(=O)(=O)Nc1ccc(F)c(-c2ccc3c(-c4ncc[nH]4)ncn3c2)c1F | nM | 170 |
| CNC(=O)c1ncn2c1CC[C@H](c1c(F)ccc(NS(=O)(=O)c3cc(F)cnc3OC)c1F)C2 | nM | 1000 |

----------
experiment-description: Unbound AUC in BALB/c mouse at 3 mg/kg, po measured upto 24 hrs
Assay type: ADME, organism-based
condition-parameters: in vivo
experimental-endpoint: fAUC (µM·h)

| given-smiles | experimental-endpoint | observed-result |
| --- | --- | --- |
| CNC(=O)c1ncn2cc(-c3c(F)ccc(NS(=O)(=O)c4cc(Cl)cnc4OC)c3F)ncc12 | fAUC | 0.13 |

----------
experiment-description: Unbound clearance in Sprague-Dawley rat plasma at 1 mg/kg, iv measured upto 24 hrs
Format: ADME, organism-based
condition-parameters: in vivo

| given-smiles | CL free [mL/min/kg] |
| --- | --- |
| COc1ncc(Cl)cc1S(=O)(=O)Nc1ccc(F)c(-c2ccc3c(-c4ncc[nH]4)n[nH]c3c2F)c1F | 740 |
| CNC(=O)c1ncn2cc(-c3c(F)ccc(NS(=O)(=O)c4cc(Cl)cnc4OC)c3F)ccc12 | 930 |
| CNC(=O)c1n[nH]c2c(F)c(-c3c(F)ccc(NS(=O)(=O)c4cc(Cl)cnc4OC)c3F)ccc12 | 88 |
| CNC(=O)c1ncn2cc(-c3c(F)ccc(NS(=O)(=O)c4cc(Cl)cnc4OC)c3F)ncc12 | 290 |
| CNC(=O)c1ncn2c1CC[C@H](c1c(F)ccc(NS(=O)(=O)c3cc(F)cnc3OC)c1F)C2 | 340 |
| COc1ncc(Cl)cc1S(=O)(=O)Nc1ccc(F)c(-c2ccc3c(-c4ncc[nH]4)ncn3c2)c1F | 390 |
